Source: the METLIN SMRT retention time set (Domingo-Almenara et al. 2019)

test: gradient 5% acetonitrile 3 min, to 50% in 2 min, to 85% in 15 min, held 3 min, 100 µL/min; conditions: column: Zorbax Extend-C18 2.1 x 50 mm; eluents: water / acetonitrile, 0.1% formic acid
READOUT_NAME: RP-LC retention time (s)

Here's what some known entries look like.
O=C(NCCCc1ccccc1)C1CCc2nc(N3CCOCC3)ncc2C1 (configuration not stated)    744
Nc1cc(C2CCN(C(=O)Nc3cccc(Cl)c3)CC2)no1    727
CCN1C(=O)c2cc(C(=O)N3CCN(c4ccccc4F)CC3)nn2CC1(C)C(=O)NC1CCCC1 (configuration not stated)    840
CN(C)CCNC(=O)CS(=O)Cc1cnn(-c2ccccc2)c1-n1cccc1 (configuration not stated)    603
O=C(N1CCC[C@H]1c1nc(-c2ccccc2)n[nH]1)C1(c2ccccc2)CC1    785

I: CC1CSc2ccc(S(=O)(=O)N3CCN(c4ccccn4)CC3)cc2NC1=O (configuration not stated)
II: CC1CCN(S(=O)(=O)c2cc(-c3nnc(C4CC4)o3)co2)CC1
Kindly identify the item with the lower RP-LC retention time figure among these two: I and II Identify your pick by its label.
I
(I: 647 s, II: 945 s)

---

test: gradient 5% acetonitrile 3 min, to 50% in 2 min, to 85% in 15 min, held 3 min, 100 µL/min; conditions: column: Zorbax Extend-C18 2.1 x 50 mm; eluents: water / acetonitrile, 0.1% formic acid
READOUT_NAME: RP-LC retention time (s)

C=CCn1c(NCc2cccc(Br)c2)nc2ccccc21    703
CCOc1ccc(C(=O)NCCCN2CCN(c3ccccc3)CC2)cc1    586
COc1ccc(-c2noc(-c3ccc(N4CCC(N5CCCCC5)CC4)nc3)n2)cc1    738
COc1cccc(NC(=O)N2CCC(c3nc4ccncc4n3C(C)C)C2)c1 (stereo not drawn)    535
COc1cc(CNc2nnc(-c3nnc(C4CC4)o3)c3ccccc23)cc(OC)c1    878
Cc1noc(-c2cccn2C)n1    744
CCNC(=O)c1nn(-c2ccc(F)cc2)c(OC)cc1=O    645
Cc1ccc(F)cc1NS(=O)(=O)c1c[nH]c2ncccc12    747

---

experiment: gradient 5% acetonitrile 3 min, to 50% in 2 min, to 85% in 15 min, held 3 min, 100 µL/min; conditions: column: Zorbax Extend-C18 2.1 x 50 mm; eluents: water / acetonitrile, 0.1% formic acid
READOUT_NAME: RP-LC retention time (s)

Here's what some known entries look like.
CCOC(=O)c1c(C)[nH]c(C(=O)N2CCC(C(C)C(=O)NCc3ccc(F)cc3Cl)CC2)c1C (stereo not given)    863
CCn1c(CCNC(=O)c2ccc(OC)nc2)nc2cccnc21    732
CC(C)Nc1nc(-c2ccc([N+](=O)[O-])cc2)nc2ccccc12    751
O=C(NCCc1c[nH]c2ccccc12)c1ccc(N2C(=O)CCS2(=O)=O)cc1Cl    777
Cc1nc(CCNC(=O)[C@H]2CCCN2C(=O)c2ccc(F)cc2)cs1    627

A: CCCCN(Cc1nc2nc(C)cc(C)n2n1)C(=O)c1ccccc1
B: Cc1cc2nc(C(F)(F)F)c(=O)n(C(C)C(=O)NCCCOC(C)C)c2cc1C (stereo not given)
Short answer wanted: higher RP-LC retention time, A or B ? Identify your pick by its label.
B

P: COc1ccc2[nH]cc(CCNC(=O)CN3C(=O)CCn4nc(-c5cn(C)c6ccccc56)cc43)c2c1
Q: COc1cc(-c2ccc(Nc3ccccc3C(=O)O)c(OC)c2)ccc1Nc1ccccc1C(=O)O
Kindly identify the item with the lower RP-LC retention time figure among these two: P and Q Identify your pick by its label.
P
(P: 797 s, Q: 1290 s)

1: CN1CCC(CCNC(=O)C2CCc3sc(C(=O)N4CCCC4)cc3C2)CC1 (stereo not given)
2: CCOc1ccc(-c2noc(Cn3c(=O)n(Cc4ccccc4)c(=O)c4sccc43)n2)cc1OC
Kindly identify the item with the lower RP-LC retention time figure among these two: 1 and 2 Identify your pick by its label.
1
(1: 579 s, 2: 1110 s)
